Test system: S. aureus MS15026
Assay: MIC, agar plate dilution method
Type: cell-based
Conditions: Staphylococcus aureus, 37° C., 20 hours, SDA with 5% horse blood, read-out: Antimicrobial activity (MIC)

{"columns": ["compound", "MIC"],
 "data": [
  ["CCCC(=O)O[C@H]1[C@H](C)O[C@@H](O[C@H]2[C@H](N(C)C)[C@@H](O)[C@H](O[C@H]3[C@@H](CC=O)C[C@@H](C)[C@@H](O)/C=C/C=C/C[C@@H](C)OC(=O)C[C@@H](O)[C@@H]3OC)O[C@@H]2C)C[C@@]1(C)OC(=O)CC [RKM, rokitamycin, reference compound]", "> 100 µg/mL"],
  ["CCC(=O)O[C@@H]1CC(=O)O[C@H](C)C/C=C/C=C/[C@H](OC(C)=O)[C@H](C)C[C@H](CC=O)[C@H](O[C@@H]2O[C@H](C)[C@@H](O[C@H]3C[C@@](C)(OC(C)=O)[C@@H](OC(=O)CC)[C@H](C)O3)[C@H](N(C)C)[C@H]2O)[C@H]1OC [MOM, miokamycin, reference compound]", "> 100 µg/mL"]
]}

###

Tested on: S. aureus MS15026
Assay: MIC, agar plate dilution method
Assay type: cell-based
Settings: Staphylococcus aureus, 37° C., 20 hours, SDA with 5% horse blood, read-out: Antimicrobial activity (MIC)
Protocol: The effect of the first aspect of the present invention resides in the creation of a novel and useful 16-membered macrolide derivative. Antimicrobial activities of the compounds of the present invention were determined by measuring minimum inhibitory concentration (MIC). Minimum inhibitory concentration was determined by the agar plate dilution method in the following manner. […]
The reader will find reported MIC values listed item by item below.
experimental_readout: MIC

{"columns": ["compound", "tested_system", "measured"],
 "data": [
  ["CC[C@H]1OC(=O)[C@H](C)[C@@H](O[C@H]2C[C@@](C)(OC)[C@@H](O)[C@H](C)O2)[C@H](C)[C@@H](O[C@@H]2O[C@H](C)C[C@H](N(C)C)[C@H]2O)[C@](C)(OC)C[C@@H](C)C(=O)[C@H](C)[C@@H](O)[C@]1(C)O [CAM, clarithromycin, reference compound]", "S. aureus MS15026", "> 100 µg/mL"],
  ["CO[C@@H]1[C@@H](O[C@@H]2O[C@H](C)[C@@H](O[C@H]3C[C@@](C)(OC)[C@@H](OC(=O)C(C)C)[C@H](C)O3)[C@H](N(C)C)[C@H]2O)[C@@H](CC=O)C[C@@H](C)[C@@H](O)/C=C/C=C/C[C@@H](C)OC(=O)C[C@H]1O", "S. aureus MS15026", "> 100 µg/mL"]
]}

###

Tested on: B. catarrhalis W-0506
Assay: MIC, agar plate dilution method
Format: cell-based
Conditions: Moraxella catarrhalis, W0506, 20 h, read-out: Antimicrobial activity (MIC), 37° C., 20 hours, SDA with 5% horse blood

{"columns": ["compound", "MIC"],
 "data": [
  ["CCC(=O)O[C@@H]1CC(=O)O[C@H](C)C/C=C/C=C/[C@H](O)[C@H](C)C[C@H](CC=O)[C@H](O[C@@H]2O[C@H](C)[C@@H](O[C@H]3C[C@@](C)(OC)[C@@H](OC(=O)CC)[C@H](C)O3)[C@H](N(C)C)[C@H]2O)[C@H]1OC", "0.78 µg/mL"],
  ["CCCCC(=O)O[C@H]1[C@H](C)O[C@@H](O[C@H]2[C@H](N(C)C)[C@@H](O)[C@H](O[C@H]3[C@@H](CC=O)C[C@@H](C)[C@@H](O)/C=C/C=C/C[C@@H](C)OC(=O)C[C@@H](O)[C@@H]3OC)O[C@@H]2C)C[C@@]1(C)OC", "0.2 µg/mL"],
  ["CCC(=O)O[C@H]1[C@H](C)O[C@@H](O[C@H]2[C@H](N(C)C)[C@@H](O)[C@H](O[C@H]3[C@@H](CC=O)C[C@@H](C)[C@@H](O)/C=C/C=C/C[C@@H](C)OC(=O)C[C@@H](O)[C@@H]3OC)O[C@@H]2C)C[C@@]1(C)O [LM-A7, leucomycin A7, reference compound]", "12.5 µg/mL"]
]}

###

Tested on: S. aureus M126
Test: MIC, agar plate dilution method
Type: cell-based
Conditions: Staphylococcus aureus, 37° C., 20 hours, SDA with 5% horse blood, read-out: Antimicrobial activity (MIC)

{"columns": ["compound", "MIC"],
 "data": [
  ["CCC(=O)O[C@@H]1CC(=O)O[C@H](C)C/C=C/C=C/[C@H](O)[C@H](C)C[C@H](CC=O)[C@H](O[C@@H]2O[C@H](C)[C@@H](O[C@H]3C[C@@](C)(O)[C@@H](O)[C@H](C)O3)[C@H](N(C)C)[C@H]2O)[C@H]1OC [MDM-M1, midecamycin M1, reference compound]", "> 100 µg/mL"],
  ["CCCC(=O)O[C@H]1[C@H](C)O[C@@H](O[C@H]2[C@H](N(C)C)[C@@H](O)[C@H](O[C@H]3[C@@H](CC=O)C[C@@H](C)[C@@H](O)/C=C/C=C/C[C@@H](C)OC(=O)C[C@@H](O)[C@@H]3OC)O[C@@H]2C)C[C@@]1(C)OC", "> 100 µg/mL"],
  ["CCC(=O)O[C@@H]1CC(=O)O[C@H](C)C/C=C/C=C/[C@H](OC(C)=O)[C@H](C)C[C@H](CC=O)[C@H](O[C@@H]2O[C@H](C)[C@@H](O[C@H]3C[C@@](C)(OC(C)=O)[C@@H](OC(=O)CC)[C@H](C)O3)[C@H](N(C)C)[C@H]2O)[C@H]1OC [MOM, miokamycin, reference compound]", "> 100 µg/mL"]
]}

###

Tested on: S. aureus 209P JC-1
Experiment: MIC, agar plate dilution method
Assay type: cell-based
Conditions: Staphylococcus aureus, 209P, 20 h, 37° C., 20 hours, SDA with 5% horse blood; read-out: Antimicrobial activity (MIC)

{"columns": ["molecule", "MIC, µg/mL"],
 "data": [
  ["CO[C@@H]1[C@@H](O[C@@H]2O[C@H](C)[C@@H](O[C@H]3C[C@@](C)(OC)[C@@H](OC(=O)CC(C)C)[C@H](C)O3)[C@H](N(C)C)[C@H]2O)[C@@H](CC=O)C[C@@H](C)[C@@H](O)/C=C/C=C/C[C@@H](C)OC(=O)C[C@H]1O", 0.05],
  ["CC[C@H]1OC(=O)[C@H](C)[C@@H](O[C@H]2C[C@@](C)(OC)[C@@H](O)[C@H](C)O2)[C@H](C)[C@@H](O[C@@H]2O[C@H](C)C[C@H](N(C)C)[C@H]2O)[C@](C)(OC)C[C@@H](C)C(=O)[C@H](C)[C@@H](O)[C@]1(C)O [CAM, clarithromycin, reference compound]", 0.05],
  ["CCCCC(=O)O[C@H]1[C@H](C)O[C@@H](O[C@H]2[C@H](N(C)C)[C@@H](O)[C@H](O[C@H]3[C@@H](CC=O)C[C@@H](C)[C@@H](O)/C=C/C=C/C[C@@H](C)OC(=O)C[C@@H](O)[C@@H]3OC)O[C@@H]2C)C[C@@]1(C)OC", 0.05]
]}

###

Tested on: S. aureus 209P JC-1
Experiment: MIC, agar plate dilution method
Format: cell-based
Details: Staphylococcus aureus, 209P, 20 h, 37° C., 20 hours, SDA with 5% horse blood; read-out: Antimicrobial activity (MIC)
The reader will find reported MIC values listed item by item below.

{"columns": ["molecule", "MIC (µg/mL)"],
 "data": [
  ["CO[C@@H]1[C@@H](O[C@@H]2O[C@H](C)[C@@H](O[C@H]3C[C@@](C)(OC)[C@@H](OC(=O)C(C)C)[C@H](C)O3)[C@H](N(C)C)[C@H]2O)[C@@H](CC=O)C[C@@H](C)[C@@H](O)/C=C/C=C/C[C@@H](C)OC(=O)C[C@H]1O", 0.05],
  ["CCCC(=O)O[C@H]1[C@H](C)O[C@@H](O[C@H]2[C@H](N(C)C)[C@@H](O)[C@H](O[C@H]3[C@@H](CC=O)C[C@@H](C)[C@@H](O)/C=C/C=C/C[C@@H](C)OC(=O)C[C@@H](O)[C@@H]3OC)O[C@@H]2C)C[C@@]1(C)OC", 0.05],
  ["CCC(=O)O[C@@H]1CC(=O)O[C@H](C)C/C=C/C=C/[C@H](O)[C@H](C)C[C@H](CC=O)[C@H](O[C@@H]2O[C@H](C)[C@@H](O[C@H]3C[C@@](C)(O)[C@@H](OC(=O)CC)[C@H](C)O3)[C@H](N(C)C)[C@H]2O)[C@H]1OC [MDM, midecamycin A1, reference compound]", 0.39],
  ["CCC(=O)O[C@H]1[C@H](C)O[C@@H](O[C@H]2[C@H](N(C)C)[C@@H](O)[C@H](O[C@H]3[C@@H](CC=O)C[C@@H](C)[C@@H](O)/C=C/C=C/C[C@@H](C)OC(=O)C[C@@H](O)[C@@H]3OC)O[C@@H]2C)C[C@@]1(C)OC", 0.1]
]}
